- testedTarget: human M4 muscarinic acetylcholine receptor (Homo sapiens, UniProt P08173)
- Sequence (P08173 whole entry): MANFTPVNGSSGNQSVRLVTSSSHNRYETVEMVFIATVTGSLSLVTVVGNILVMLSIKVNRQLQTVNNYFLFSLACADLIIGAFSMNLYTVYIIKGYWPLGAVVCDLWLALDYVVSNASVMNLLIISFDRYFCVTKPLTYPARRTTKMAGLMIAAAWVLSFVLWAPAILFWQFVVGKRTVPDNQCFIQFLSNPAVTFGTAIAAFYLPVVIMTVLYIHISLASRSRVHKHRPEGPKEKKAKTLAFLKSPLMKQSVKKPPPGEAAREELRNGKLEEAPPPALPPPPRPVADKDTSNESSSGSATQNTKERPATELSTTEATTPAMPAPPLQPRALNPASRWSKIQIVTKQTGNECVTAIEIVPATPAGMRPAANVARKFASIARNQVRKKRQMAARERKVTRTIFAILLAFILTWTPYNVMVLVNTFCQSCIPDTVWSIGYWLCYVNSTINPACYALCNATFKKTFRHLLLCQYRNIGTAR
- assayName: human FLIPR-based M4 PAM assay (CHO-K1 cells with human M4 receptor and Gαqi5, calcium dye fluorescence, acetylcholine at 20% of maximum response)
- protocolConditions: inflection point (IP) of 4 parameter logistic dose response curve, human M4 receptor + Gαqi5, FLIPR Tetra
pEC50: −log10 of the molar value.
Classify as follows. Reported pEC50 greater than or equal to 7: criterion met. Reported pEC50 below: criterion not met.

[Q] State whether the measured pEC50 reaches 7, counting equality as reaching it, for Cc1cc2c(nc1N1CCC(Oc3ccccc3)CC1)CN(S(C)(=O)=O)C2 [Example 60]
[A] criterion met

[Q] State whether the measured pEC50 reaches 7, counting equality as reaching it, for Cc1cn2c(=O)[nH]nc2nc1N1CCC(Oc2ccc3c(c2)C(=O)N(C2CC2)C3)CC1 [Example 6]
[A] criterion not met

[Q] State whether the measured pEC50 reaches 7, counting equality as reaching it, for Cc1cc2c(nc1N1CCC(Oc3ccccc3)CC1)COC2=O [Example 31]
[A] criterion met

[Q] State whether the measured pEC50 reaches 7, counting equality as reaching it, for Cc1cc2c(nc1N1CCC(Oc3cccc(C#N)c3)CC1)CNS2(=O)=O [Example 76]
[A] criterion not met

[Q] State whether the measured pEC50 reaches 7, counting equality as reaching it, for COc1ccc(OC2CCN(c3nc4c(cc3C)CN(C(=O)c3ccc[nH]3)C4)CC2)cn1 [Example 50]
[A] criterion not met

[Q] State whether the measured pEC50 reaches 7, counting equality as reaching it, for Cc1cn2c(=O)[nH]nc2nc1N1CCC(Oc2ccc3c(cnn3C)c2)CC1 [Example 18]
[A] criterion not met

[Q] State whether the measured pEC50 reaches 7, counting equality as reaching it, for COc1ccc(OC2CCN(c3nc4c(cc3C)CN(Cc3ccncc3)C4=O)CC2)cn1 [Example 36]
[A] criterion not met
